Entries and their measured recovery follow.
EXPERIMENT_NOTES: Permeability in human Caco-2 cells assessed as compound recovery
Type: ADME, cell-based
EXPERIMENTAL_SETUP: read-out: Activity

[
  {
    "SMILES_REPRESENTATION": "Cl.NCc1ccc(NC(=O)c2cc3ccccc3cc2O)cc1",
    "recovery": "> 90%"
  }
]

Using the record for Cc1ccc(C(=O)Nc2ccc(CN)cc2)c(O)c1.Cl , state its measured recovery. > 90%

----------
SYSTEM_NAME: Kallikrein-11 (Homo sapiens) (UniProt Q9UBX7)
Sequence (whole entry): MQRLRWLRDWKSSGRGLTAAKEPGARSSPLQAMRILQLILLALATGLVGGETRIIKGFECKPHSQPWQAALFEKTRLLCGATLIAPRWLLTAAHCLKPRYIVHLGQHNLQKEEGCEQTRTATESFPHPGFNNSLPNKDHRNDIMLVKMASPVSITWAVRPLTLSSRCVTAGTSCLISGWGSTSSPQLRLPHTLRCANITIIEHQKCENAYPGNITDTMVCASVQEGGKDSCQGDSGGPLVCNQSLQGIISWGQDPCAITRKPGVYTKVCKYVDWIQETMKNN
EXPERIMENT_NOTES: Inhibition of KLK11 (unknown origin) assessed as inhibition of release of AMC fluorescent product using Boc-QAR-AMC as substrate at 10 uM incubated for 30 mins by microplate reader relative to control
Entry flag: TRUE if inhibition reaches 60%; FALSE if it does not.

[
  {
    "SMILES_REPRESENTATION": "Cc1ccc(C(=O)Nc2ccc(CN)cc2)c(O)c1.Cl",
    "SYSTEM_NAME": "Kallikrein-11 (Homo sapiens) (UniProt Q9UBX7)",
    "DISCRETE_LABEL": "FALSE"
  }
]

Dear colleague, could you confirm whether COc1ccc2c(O)c(C(=O)Nc3ccc(CN)cc3)ccc2c1 has inhibition at or above 60%? FALSE

Dear colleague, could you confirm whether Cl.NCc1ccc(NC(=O)c2cc3ccccc3cc2O)cc1 has inhibition at or above 60%? FALSE

----------
SYSTEM_NAME: Kallikrein-5 (Homo sapiens)
EXPERIMENT_NOTES: Inhibition of KLK5 (unknown origin) assessed as inhibition of release of AMC fluorescent product using H-VPR-AMC as substrate at 10 uM incubated for 30 mins by microplate reader relative to control
Entry flag: class 1 if inhibition reaches 5%; class 0 if it does not.

[
  {
    "SMILES_REPRESENTATION": "Cl.NCc1ccc(NC(=O)c2cc3ccccc3cc2O)cc1",
    "DISCRETE_LABEL": "class 0"
  },
  {
    "SMILES_REPRESENTATION": "COc1ccc2c(O)c(C(=O)Nc3ccc(CN)cc3)ccc2c1",
    "DISCRETE_LABEL": "class 1"
  },
  {
    "SMILES_REPRESENTATION": "CC(C)(C)c1ccc(O)c(C(=O)Nc2ccc(CN)cc2)c1.Cl",
    "DISCRETE_LABEL": "class 1"
  },
  {
    "SMILES_REPRESENTATION": "CC(C)c1ccc(C(=O)Nc2ccc(CN)cc2)c(O)c1",
    "DISCRETE_LABEL": "class 1"
  },
  {
    "SMILES_REPRESENTATION": "Cl.NCc1ccc(NC(=O)c2ccc3ccccc3c2O)cc1",
    "DISCRETE_LABEL": "class 1"
  }
]

As a next step, examine the molecule that follows.
Dear colleague, could you confirm whether Cc1ccc2ccc(C(=O)Nc3ccc(CN)cc3)c(O)c2c1 has inhibition at or above 5%? class 0

Ref: ChEMBL document CHEMBL4831480
